Where do these numbers come from? They come from the supplement of paper PMC10567573.

// values below are reported protein stability index
B1: EPB41L3 (parent)
chain: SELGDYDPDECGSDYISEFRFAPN

Variants of: B1
testDetails: protein stability index of a GFP-peptide fusion (GPS, HEK-293T) (PSI 1-6); higher = more stable;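 further: lentivirally expressed fusions sorted by FACS into six bins by GFP to DsRed ratio, PSI derived from sequencing read proportions per bin multiplied by bin number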
assayContext: c terminus: a fixed tail appended
endpoint: protein stability index

variant: E18N
endpoint: protein stability index
testValue: 2.15
//
variant: E2M
endpoint: protein stability index
testValue: 1.81
//
variant: I16A
endpoint: protein stability index
testValue: 4.33
//
variant: D14M
endpoint: protein stability index
testValue: 2.07
//
variant: A22T
endpoint: protein stability index
testValue: 1.85
//
variant: S13I
endpoint: protein stability index
testValue: 2.37
//
variant: A22Y
endpoint: protein stability index
testValue: 3.51
//
variant: Y6G
endpoint: protein stability index
testValue: 2.48
//
variant: C11Y
endpoint: protein stability index
testValue: 2.1
//
variant: F21W
endpoint: protein stability index
testValue: 4.24
//
variant: L3N
endpoint: protein stability index
testValue: 2.22
//
variant: L3F
endpoint: protein stability index
testValue: 2.36
//
variant: E10P
endpoint: protein stability index
testValue: 2.04
//
variant: D5M
endpoint: protein stability index
testValue: 1.71
//
variant: Y15N
endpoint: protein stability index
testValue: 4.06
//
variant: A22I
endpoint: protein stability index
testValue: 2.24
//
variant: A22M
endpoint: protein stability index
testValue: 3.48
//
variant: G4W
endpoint: protein stability index
testValue: 1.7
//
variant: E18C
endpoint: protein stability index
testValue: 2.2
//
variant: E18Y
endpoint: protein stability index
testValue: 1.67
//
variant: E10N
endpoint: protein stability index
testValue: 1.9
//
variant: L3I
endpoint: protein stability index
testValue: 2.02
//
variant: S17F
endpoint: protein stability index
testValue: 1.7
//
variant: N24F
endpoint: protein stability index
testValue: 2.25
//
variant: E18M
endpoint: protein stability index
testValue: 1.96
//
variant: D9Q
endpoint: protein stability index
testValue: 2.25
//
variant: I16Q
endpoint: protein stability index
testValue: 3.81
//
variant: P8K
endpoint: protein stability index
testValue: 2.11
//
variant: C11A
endpoint: protein stability index
testValue: 2.02
//
variant: N24W
endpoint: protein stability index
testValue: 2.45
//
variant: G4I
endpoint: protein stability index
testValue: 1.95
//
variant: A22G
endpoint: protein stability index
testValue: 4.21
//
variant: D14E
endpoint: protein stability index
testValue: 1.5
//
variant: R20S
endpoint: protein stability index
testValue: 4.68
//
variant: D9L
endpoint: protein stability index
testValue: 1.84
//
variant: S17Q
endpoint: protein stability index
testValue: 2.44
//
variant: S1D
endpoint: protein stability index
testValue: 2.43
//
variant: P23G
endpoint: protein stability index
testValue: 2.37
//
variant: P23Q
endpoint: protein stability index
testValue: 2.92
//
variant: E2Q
endpoint: protein stability index
testValue: 1.9
//
variant: F19S
endpoint: protein stability index
testValue: 5.13
//
variant: G12V
endpoint: protein stability index
testValue: 1.95
//
variant: E18Q
endpoint: protein stability index
testValue: 1.53
//
variant: G12H
endpoint: protein stability index
testValue: 2.22
